Known viability at 100 µg/ml of a selection of compounds
experiment: In vitro cytotoxicity assay (XTT); conditions: mouse
Give just the number in %; leave the unit off.

C/C(=C\CO)CCC[C@H](C)CCC[C@H](C)CCCC(C)C [Compound C3, phytol]; 100

The reported value for CCCCCCCCCCCCCCCCCCCCCCCCCCCCCCO [Compound C2, triacontanol] in terms of viability at 100 µg/ml is 100

* * *

test: In vitro cytotoxicity assay (XTT); conditions: human
reportedMetric: viability at 100 µg/ml
Remember to put the unit after the number in your answer.

C/C(=C\CO)CCC[C@H](C)CCC[C@H](C)CCCC(C)C [Compound C3, phytol]; 100%

Next up:
Memo: CCCCCCCCCCCCCCCCCCCCCCCCCCCCCCO [Compound C2, triacontanol] , reported viability at 100 µg/ml: 100%

* * *

test: In vitro cytotoxicity assay (XTT); details: mouse, b16-f10 cells
*1 amine or outer side, *2 acyl side, *3 side chain or, on linkers, in order; H or OH if unused. Where a SMILES comes first, the peptide text is derived from it. Bridges are numbered along the chain shown (N, C = ends). Roman numbers before positions name the chains, in order. [ ]: non-standard residue; d: D form. Actinocin(9to1) = Cc1c2oc3c(C)ccc(C(=O)[*:1])c3nc-2c(C(=O)[*:2])c(N)c1=O; NMeV = CN[C@H](C(=O)O)C(C)C; Sar = CNCC(=O)O
reportedMetric: CC50 (ng/mL)
// units = ng/mL; emit number, no label

Record Cc1c2oc3c(C)ccc(C(=O)N[C@@H]4C(=O)N[C@H](C(C)C)C(=O)N5CCC[C@H]5C(=O)N(C)CC(=O)N(C)[C@@H](C(C)C)C(=O)O[C@@H]4C)c3nc-2c(C(=O)N[C@@H]2C(=O)N[C@H](C(C)C)C(=O)N3CCC[C@H]3C(=O)N(C)CC(=O)N(C)[C@@H](C(C)C)C(=O)O[C@@H]2C)c(N)c1=O [actinomycin D, reference compound] (I: T[dV]P[Sar][NMeV] / II: T[dV]P[Sar][NMeV]; ester I:1-I:C, II:1-II:C; linker I:N-II:N via Actinocin(9to1)) . Reported CC50: 4.5

* * *

assay: In vitro cytotoxicity assay (XTT); conditions: mouse
Let's look at some compounds and their measured EC50.

CCCCCCCCCCCCCCCCCCCCCCCCCCCCCCO [Compound C2, triacontanol]; > 100 µg/mL

Per the record, C/C(=C\CO)CCC[C@H](C)CCC[C@H](C)CCCC(C)C [Compound C3, phytol] has EC50 of > 100 µg/mL
